B1: CPEB3 Ribozyme (parent)
chain: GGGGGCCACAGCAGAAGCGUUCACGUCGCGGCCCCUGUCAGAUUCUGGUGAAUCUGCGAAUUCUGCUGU

# Variants of: B1
# measurementNotes: self-cleavage, relative activity (ratio to wild type); higher = more cleavage; co-transcriptional
Entries and their measured self-cleavage follow.
Just the number, please.

// below: answered variants
>  <mutantLabel>
G4C A40G

>  <self-cleavage>
0.526

$$$$
>  <mutantLabel>
G2C C54A

>  <self-cleavage>
0.0299

$$$$
>  <mutantLabel>
G5A G41A

>  <self-cleavage>
0.512

$$$$

Please list self-cleavage recorded for the variant C29U U36A
0.132

Supply recorded self-cleavage for G17A G50C here.
0.387

Determine from records and report self-cleavage for G41C G48U
0.966

Entry G17A A52G needs its self-cleavage filled in; supply it.
0.596

Dear colleague, please send me the reported self-cleavage for C35G A60C when you can.
0.348

Please give measured self-cleavage of the following entry: G41A A51U
0.511

Please list self-cleavage recorded for the variant C7U G28C
0.197

For the variant C12G C34A , report self-cleavage.
0.699
